B1: ZNF449 (parent)
chain: YRHQRLHTGERPYECTVCKKRFTR

Variants of: B1
Test: protein stability index of a GFP-peptide fusion (GPS, HEK-293T) (PSI 1-6); higher = more stable;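 note: lentivirally expressed fusions sorted by FACS into six bins by GFP to DsRed ratio, PSI derived from sequencing read proportions per bin multiplied by bin number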
Details: c terminus: a fixed tail appended
Collected protein stability index values appear next to each entry.
Lab note: record the figure alone, no unit after it.

sequencevariant=H3R val=2.44
sequencevariant=G9Y val=2.1
sequencevariant=R24D val=2.6
sequencevariant=R11E val=2.08

From here, focus on the item given below.
protein stability index recorded for this variant, `Y1D` , is 2.58
